value-type: logP
Answers are plain numbers.

Some solved entries appear below for comparison.
CCCCCCCCCCC(CC)c1ccccc1 (stereo unspecified) = 8.65
CCCCCC(CCCC)c1ccccc1 (stereo unspecified) = 6.9
CCCCCCCCC(CC)c1ccccc1 (stereo unspecified) = 7.53
CCCCCCCCCCCCc1ccccc1 = 8.65
CCCCCCCCCCC(CCC)c1ccccc1 (stereo unspecified) = 9.25
CCCCCCC(CCCC)c1ccccc1 (stereo unspecified) = 7.45
CCCCCCCCCCCc1ccccc1 = 8.14
CCCCCCCCCCCC(CC)c1ccccc1 (stereo unspecified) = 9.29

# return logP for each item in the list
1. CCCCCCCCCC(C)c1ccccc1 (stereo unspecified)
2. CCCCCCCCCC(CCCC)c1ccccc1 (stereo unspecified)
3. CCCCCCCC(CC)c1ccccc1 (stereo unspecified)
4. CCCCCCCCC(CCCC)c1ccccc1 (stereo unspecified)
5. CCCCCCCCCCCCC(C)c1ccccc1 (stereo unspecified)
6. CCCCCCCC(CCCC)c1ccccc1 (stereo unspecified)
7. CCCCCCCCCCC(C)c1ccccc1 (stereo unspecified)
8. CCCCCCC(CCC)c1ccccc1 (stereo unspecified)

1: 7.63; 2: 9.16; 3: 7; 4: 8.56; 5: 9.29; 6: 8.01; 7: 8.19; 8: 7
